Measured values drawn from patent US20240116985A1 for this set.

PROTOCOL_TEXT: CHI Log D procedure
Type: physicochemical
TEST_SETTINGS: pH 7.4
PROPERTY_MEASURED: CHI Log D

{"columns": ["COMPOUND", "VALUE_OBSERVED"],
 "data": [
  ["CC(=O)N1CCC[C@]12CC=CCCCC1(CCCC=CCCCCCC[C@@](C)(C(=O)N[C@@H](Cc3ccccc3)C(=O)N[C@@H](Cc3csc4ccccc34)C(=O)N[C@@H](CCC(N)=O)C(N)=O)NC(=O)[C@H](CCC(N)=O)NC(=O)[C@H](Cc3ccccc3)NC(=O)[C@H](C)NC(=O)[C@H](C)NC(=O)[C@H](CCC(=O)O)NC(=O)[C@H](CC(=O)O)NC1=O)NC(=O)[C@H](CC(F)(F)F)NC(=O)[C@H](CC(=O)O)NC2=O (stereo partly drawn) [I-501]", 2.138],
  ["CC(=O)N1CCC[C@]12CC=CCCCC1(CCCC=CCCCCCC[C@@](C)(C(=O)N[C@@H](Cc3cccc(F)c3F)C(=O)N[C@@H](Cc3csc4ccccc34)C(=O)N[C@@H](CCC(N)=O)C(N)=O)NC(=O)[C@H](C(C)C)NC(=O)[C@H](Cc3ccccc3)NC(=O)[C@H](C)NC(=O)[C@H](C)NC(=O)[C@H](CCC(=O)O)NC(=O)[C@H](CC(=O)O)NC1=O)NC(=O)[C@H](C)NC(=O)[C@H](CC(=O)O)NC2=O (stereo partly drawn) [I-388]", 2.863],
  ["CC(=O)N[C@@H](Cc1ccccc1)C(=O)N[C@@H](CC(=O)O)C(=O)N[C@@H](C)C(=O)N[C@]1(C)CCCCCCC=CCOC(=O)N2CC[C@@](C(=O)N[C@@H](Cc3ccccc3)C(=O)N[C@@H](Cc3c[nH]c4ccccc34)C(=O)N[C@@H](CCC(N)=O)C(N)=O)(C2)NC(=O)[C@H](C(C)C)NC(=O)[C@H](Cc2ccccc2)NC(=O)[C@H](CCCC(=O)O)NC(=O)[C@H](C)NC(=O)[C@H](CC(=O)O)NC(=O)[C@H](CC(=O)O)NC1=O [I-24]", 0.977]
]}
